- System: KHOS-NP
- Assay Overview: relative viability vs DMSO control (72 h) (fraction); higher = more viable cells
- Condition Set: 0.01372 µM
Counter-ions that a name gives are not always drawn.
Provide the recorded relative viability for the entries that follow.
Lab note: record the figure alone, no unit after it.

If you can, please state the reported relative viability value of CC(C)NC(=O)C1CCC(n2c(NC(=O)c3ccc(F)cc3)nc3ccc(CN4CCC(C(C)(C)O)CC4)cc32)CC1 (configuration not stated) .
1.1

State the recorded relative viability for this entry: COc1cccc2c1C(=O)c1c(O)c3c(c(O)c1C2=O)C[C@@](O)(C(=O)CO)C[C@@H]3O[C@H]1C[C@H](N)[C@H](O)[C@H](C)O1 [Doxorubicin Hydrochloride]
1.02

Look up relative viability: "Cn1cnc2c(F)c(Nc3ccc(Br)cc3F)c(C(=O)NOCCO)cc21"
1.06

So what's the measured relative viability for this one? "C[C@@H]1COCCN1c1cc(-c2ccnn2C)c2ccnc(-c3ccn[nH]3)c2n1"
1.06

I'd like to know its relative viability. The molecule in question is "Cc1nc(NC(=O)N2CCC[C@H]2C(N)=O)sc1-c1ccnc(C(C)(C)C(F)(F)F)c1"
1.03

I'd like to know its relative viability. The molecule in question is "Cc1cnc(Nc2ccc(OCCN3CCCC3)cc2)nc1Nc1cccc(S(=O)(=O)NC(C)(C)C)c1"
1.07

Consider the molecule "O=C(Nc1cnn2ccc(N3CCC[C@@H]3c3cc(F)ccc3F)nc12)N1CC[C@H](O)C1" and give its measured relative viability.
1.1

* * *

Kindly state relative viability for each of the entries shown.
- Tested on: RD-ES
- Assay Overview: relative viability vs DMSO control (72 h) (fraction); higher = more viable cells
- Condition Set: 3.333 µM
Give a plain numeric answer without units written out.

GET /values?readout=relative viability&item= "CC[C@H](Nc1ncnc2[nH]cnc12)c1nc2cccc(F)c2c(=O)n1-c1ccccc1"
0.88

Name the reported relative viability value associated with the molecule "Nc1cc(C(F)(F)F)c(-c2cc(N3CCOCC3)nc(N3CCOCC3)n2)cn1"
0.102

Data request, read-out relative viability, for "CC(C)N1CCN(Cc2cnc(-c3cc(-c4cccc5[nH]ccc45)cc4[nH]ncc34)o2)CC1"
0.854

Any idea what its relative viability is? The molecule is "CNC(=O)c1cc(Oc2ccc(NC(=O)Nc3ccc(Cl)c(C(F)(F)F)c3)c(F)c2)ccn1"
0.87

Which relative viability is reported for this molecule? "CC1(C)CNc2cc(NC(=O)c3cccnc3NCc3ccncc3)ccc21"
0.974

* * *

- Tested on: SK-LMS-1
- Assay Overview: relative viability vs DMSO control (72 h) (fraction); higher = more viable cells
- Condition Set: 1.111 µM
The label condition met is reserved for relative viability strictly under 0.9; condition not met covers values equal to or above it.

Hello, I'm reviewing records and need to know if relative viability of "CC(=O)Nc1cccc(-n2c(=O)n(C3CC3)c(=O)c3c(Nc4ccc(I)cc4F)n(C)c(=O)c(C)c32)c1" is below 0.9. Could you check?
condition met

Is relative viability strictly under 0.9 for the entry "Cn1cnc2c(F)c(Nc3ccc(Br)cc3F)c(C(=O)NOCCO)cc21" ?
condition met

Identify whether the compound CC(C)NC(=O)C1CCC(n2c(NC(=O)c3ccc(F)cc3)nc3ccc(CN4CCC(C(C)(C)O)CC4)cc32)CC1 (centres undefined) records relative viability below 0.9.
condition not met

Is 0.9 strictly greater than the compound's reported relative viability? compound: "CCc1cc2c(cc1N1CCC(N3CCOCC3)CC1)C(C)(C)c1[nH]c3cc(C#N)ccc3c1C2=O"
condition not met

Strictly below 0.9: is that where relative viability of "C[C@@H]1COCCN1c1cc(-c2ccnn2C)c2ccnc(-c3ccn[nH]3)c2n1" sits?
condition met

Lab note: relative viability threshold 0.9. Does this compound come in strictly under it? "C[C@@H]1CCN(C(=O)CC#N)C[C@@H]1N(C)c1ncnc2[nH]ccc12"
condition not met
